These measurements were taken from ChEMBL document CHEMBL3433997.

biological target: Hexose transporter 1 (Plasmodium falciparum); assay: ST_JUDE_LEISH: Cytotoxicity at 2uM final concentration against transgenic Leishmania Mexicana promastigotes LmPfHT that are glucose transport deficient and complemented with the Plasmodium falciparum hexose transporter. Activity is measured by DNA content using SYBR green in vitro; assay type: functional
Exercise: state measured inhibition for each of the compounds provided.
One number for each entry, in %.

Record excerpt, results attached:
- compound: "O=C(NCCCN1CCC(N2CCCCC2)CC1)C1=Cc2cc(Br)ccc2OC1"
  unit tag: "%"
  observed: 2.63
- compound: "Cc1cc(C2CCN(CCCCNC(=O)c3ccc(-c4ccc(C#N)cc4)cc3)CC2)c(C)cc1OCCO"
  unit tag: "%"
  observed: 12.3
- compound: "O=C(NCC1CCC(CNCCc2ccccc2)CC1)Nc1ccc(Cl)c(Cl)c1 (stereo not given)"
  unit tag: "%"
  observed: -1.96
- compound: "N#Cc1ccc(N2CCN(Cc3ccc(-c4cccc(-c5nc6ccccc6[nH]5)c4)cc3)CC2)nc1"
  unit tag: "%"
  observed: 1.43

// below: inhibition requested for another compound
IN: Specify measured inhibition for O=S(=O)(Nc1cccc(CCN2CCC(N3CCCCC3)CC2)c1)c1cccc(C(F)(F)F)c1 .
OUT: 3.24
